# Tested on: MCF7
# Test details: NCI tumour cell line growth inhibition, 48 h
Active and inactive are the calls of the source. Rule as the data show it: active = GI50 up to about 1.1 µM and inactive = higher. Residues, ends and D or L forms follow the SMILES beside them. Groups on a side chain read outwards from the residue. *: point of attachment. Cbz = O=C(OCc1ccccc1)*; Boc = CC(C)(C)OC(=O)*
Measure: GI50

[[record]]
compound = "C/C=C/C(=O)N1C(=O)OC[C@@H]1c1ccccc1"
result = "14.7 µM (inactive)"

[[record]]
compound = "N#CC(=N)c1ncn(-c2ccccc2N)c1N"
result = "> 100 µM (inactive)"

[[record]]
compound = "Fc1c(F)c(F)c(CSc2nc3ccccc3[nH]2)c(F)c1F"
result = "> 100 µM (inactive)"


Lookup: Find the measured GI50 of CC(C)(Oc1ccc(C(=O)c2ccc(Cl)cc2)cc1Cl)C(=O)N1CCN(CCO)CC1 and report it.
Found: 5.12 µM (inactive)

Lookup: Write down GI50 measured for item COc1ccc2c(c1)N(C(C)=O)CN1C(=O)CCC21 (centres undefined)
Found: > 100 µM (inactive)

Lookup: Read the entry C1CCC2(CC1)O[C@@H]1[C@@H](O2)[C@@H](O[C@H]2O[C@@H]3COC4(CCCCC4)O[C@H]3[C@@H]3OC4(CCCCC4)O[C@@H]23)O[C@@H]2COC3(CCCCC3)O[C@@H]12 and write its reported GI50.
Found: > 100 µM (inactive)

Lookup: Output GI50 of CC(C)CC(NC(=O)OCc1ccccc1)C(=O)NCCCCC(NC(=O)C(CCCCNC(=O)C(CC(C)C)NC(=O)OCc1ccccc1)NC(=O)C(CCCCNC(=O)C(CC(C)C)NC(=O)OCc1ccccc1)NC(=O)C(CCCCNC(=O)C(CC(C)C)NC(=O)OCc1ccccc1)NC(=O)OC(C)(C)C)C(=O)O (centres undefined) (Boc-K([Leu-Cbz])K([Leu-Cbz])K([Leu-Cbz])K([Leu-Cbz])-OH; configuration not given here)
Found: > 25 µM (inactive)

###

GI50 for assorted molecules
# System: HOP-92
# Test details: NCI tumour cell line growth inhibition, 48 h
The source made the active and inactive calls. Cut-off read from the data, not from the text of the source: active = GI50 up to about 1.1 µM and inactive = higher.

In the examples that follow, each entry is paired with its recorded GI50.
[[record]]
molecule = "Cc1cc(C)c(C(=O)/C(=C/c2ccccc2)c2ccccc2)c(C)c1"
subject_of_test = "HOP-92"
result = "32.8 µM (inactive)"

[[record]]
molecule = "Cc1cc(=O)oc2c(CNC(Cc3ccccc3)C(=O)O)c(O)ccc12 (stereo not drawn)"
subject_of_test = "HOP-92"
result = "> 100 µM (inactive)"

[[record]]
molecule = "COC(=O)[C@@]12OC[C@]34C([C@@H](O)C1O)[C@@]1(C)CC(=O)C(OC(=O)/C=C(/c5ccccc5)C(F)(F)F)=C(C)C1C[C@H]3OC(=O)[C@H](O)[C@H]42 (stereo partly drawn)"
subject_of_test = "HOP-92"
result = "5.86 µM (inactive)"

[[record]]
molecule = "NCCC(N)C(=O)O (stereo not drawn)"
subject_of_test = "HOP-92"
result = "> 100 µM (inactive)"

[[record]]
molecule = "O=C1C2C3C=C4c5ccccc5N(c5ccccc5)C4(C2C(=O)N1c1ccc(Br)cc1)[C@H]1C(=O)N(c2ccc(Br)cc2)C(=O)[C@@H]31 (stereo partly drawn)"
subject_of_test = "HOP-92"
result = "84.3 µM (inactive)"

[[record]]
molecule = "CCOC(=O)CNC(=O)C(CCC(=O)N(C)O)NC(=O)CCC(N)C(=O)O (stereo not drawn)"
subject_of_test = "HOP-92"
result = "> 100 µM (inactive)"


Lookup: Annotate the molecule COC(=O)N/N=C(\C)c1c(O)cc(C)oc1=O with its measured GI50.
Found: > 100 µM (inactive)

Lookup: For the molecule c1ccc(CSP234N5CCN2CCN3CCN4CC5)c(CSP234N5CCN2CCN3CCN4CC5)c1 , report GI50.
Found: 46.2 µM (inactive)

Lookup: Report measured GI50; entry is COc1ccc2c(c1)nc1n2C(c2c(F)cccc2Cl)SC1 (stereo not drawn)
Found: > 37.3 µM (inactive)

Lookup: Specify reported GI50 for the molecule shown: CC1=NC(C(=O)O)Cc2c1[nH]c1ccccc21 (stereo not drawn)
Found: 14.6 µM (inactive)

Lookup: Output GI50 of CCOc1ccc(/N=C/c2c3ccccc3nc3ccccc23)cc1
Found: > 100 µM (inactive)

Lookup: Note down GI50 recorded for Cc1ccc(C)c(N2C(=O)C(=O)C(c3nc4ccccc4s3)/C(=N/NC(=O)NN)C2=O)c1 (stereo not drawn)
Found: > 100 µM (inactive)

Lookup: Return the recorded GI50 value; entry: CCOC(=O)[C@@H]1C[C@@H]1c1ccc(O)c(O)c1
Found: 36.7 µM (inactive)

Lookup: Input COC(=O)[C@]1(C)CCC[C@]2(C)[C@H]3CC[C@]4(C(C)C)OO[C@@H](O4)[C@]34O[C@@H]4C[C@H]21 , output reported GI50.
Found: 1.97 µM (inactive)

###

// GI50 lookup, one value per entry
# Tested on: Malme-3M
# Test details: NCI tumour cell line growth inhibition, 48 h
Active and inactive are the calls of the source. Rule as the data show it: active = GI50 up to about 1.1 µM and inactive = higher.

[[record]]
compound = "N#Cc1sc2nc3c(c(-c4ccccc4)c2c1N)CCCC3"
result = "> 100 µM (inactive)"


Let us move to another entry and its GI50.
Lookup: Name the value of GI50 reported for COc1ccc(/N=C/c2ccc(N(CCC#N)S(=O)(=O)c3ccccc3)cc2)cc1 when tested on Malme-3M.
Found: > 100 µM (inactive)

###

# System: SK-OV-3
# Test details: NCI tumour cell line growth inhibition, 48 h
Calls of active or inactive are those of the source. No stated cut-off is given here; in the data, active = GI50 up to about 1.1 µM and inactive = higher.
// allowed return values: active, inactive

Lookup: Field: outcome | Entry: O=c1[nH]c2c(c(=O)[nH]1)SSC2
Found: inactive

Lookup: I would be grateful if you could indicate the recorded call for C=C(C)[C@H]1Cc2c(ccc3c2O[C@@H]2COc4cc(OC)c(OC)cc4[C@@H]2C3=O)O1 .
Found: active

Lookup: Field: outcome | Entry: Cc1cc2c(C(C)C)c(O)c(O)c(/C=N/c3ccccc3)c2c(O)c1-c1c(C)cc2c(C(C)C)c(O)c(O)c(/C=N/c3ccccc3)c2c1O
Found: inactive

Lookup: // return assay outcome for CC(C)C1CC(CO)(CNc2nc(N)nc(Cl)c2/C=N\O)C1 (stereo not given)
Found: inactive

Lookup: # lookup: test call for CC1(C)OC2C(CCP(=O)(O)O)OC(c3nc(C(N)=O)cs3)C2O1 (stereo not given)
Found: inactive

Lookup: How was COc1ccc(CCc2cc(OC)cc(OC)c2)cc1 classified in this test?
Found: inactive

Lookup: Entry Cc1ccsc1C(=O)C(CC(=O)c1cccs1)c1ccsc1 (stereo not given) : call = ?
Found: inactive

###

Quick reference for GI50 among some molecules
# System: SK-OV-3
# Test details: NCI tumour cell line growth inhibition, 48 h
Calls of active or inactive are those of the source. Rule as the data show it: active = GI50 up to about 1.1 µM and inactive = higher.

Lookup: Read off the recorded GI50 for CCOC(=O)c1c(C)n(CCN2CCN(C)CC2)c2ccc(OC)cc12
Found: 72.6 µM (inactive)

Lookup: Please report the measured GI50 for Cc1nc(-c2cc3cc(Cl)ccc3oc2=O)cc2c1c(=O)oc1ccc(Cl)cc12
Found: > 100 µM (inactive)

Lookup: Let me know recorded GI50 for CC(=O)Nc1ccc(-c2nc3ccccc3s2)cc1Cl , thanks.
Found: 40.6 µM (inactive)

Lookup: Tell me GI50 reported for C#CCOCn1cnc2c(S)ncnc21
Found: > 100 µM (inactive)

Lookup: Please look at this molecule and report its GI50: CC1CC[C@@]2(OC1)OC1C[C@H]3[C@@H]4CCC5CC(O)CC[C@]5(C)[C@H]4C/C(=N\N(C)C)[C@]3(C)C1[C@@H]2C (stereo partly specified)
Found: 18.7 µM (inactive)

Lookup: Write down GI50 measured for item O=C(CSc1nc2ccc(Cl)cc2c(=O)n1-c1ccccc1)N/N=C1\C(=O)Nc2ccc(F)cc21
Found: 8.34 µM (inactive)

Lookup: Quickly give me recorded GI50 for O=C(n1c(=O)n(-c2ccc([N+](=O)[O-])cc2)c(=O)n1C(=O)C(Cl)(Cl)Cl)C(Cl)(Cl)Cl
Found: > 100 µM (inactive)

Lookup: Give the measured GI50 for COc1ccc(/C(C)=C2\CCCN(Cc3ccccc3)C2)cc1
Found: 29.9 µM (inactive)

Lookup: Dear colleague, please send me the reported GI50 for CCCCCCCCCCCCCCCC(=O)OCC(COP(=O)(O)OCCNC(=O)CCSSc1ccccn1)OC(=O)CCCCCCCCCCCCCCC (stereo unspecified) when you can.
Found: > 100 µM (inactive)

Lookup: Recall and state the measured GI50 for COc1ccccc1NC(=S)N/N=C/c1c(C)n(C)n(-c2ccccc2)c1=O .
Found: 35.3 µM (inactive)

Lookup: Identify measured GI50 corresponding to C/C=C/C(=O)N1C(=O)OC[C@@H]1c1ccccc1
Found: 18.2 µM (inactive)

Lookup: Give GI50 for the following molecule: O=c1[nH]c(=O)n(C2CC(O)C(CO)O2)cc1OC/C=C/Cc1ccccc1 (stereo unspecified)
Found: > 100 µM (inactive)

Lookup: Report GI50 for CC1(C)N=[N+]([O-])C1(C)C
Found: > 100 µM (inactive)
